Assay: In vivo microdialysis pharmacokinetics of LVFX without transporter inhibitors
Parameters: species or system rat
Conditions: rat, brain ECF, iv, 50 mg/kg, brain ECF; Group 1: vehicle solution of Tariquidar/Ko143 + LVFX 50 mg/kg; mean ± SD, n=3; read-out: AUC0–180 (converted)
Measured Parameter: AUC(0-t) (ng·h/mL)
Expressed in ng·h/mL, but write only the number.

The compound listed as C[C@H]1COc2c(N3CCN(C)CC3)c(F)cc3c(=O)c(C(=O)O)cn1c23 [LVFX, Levofloxacin] has a reported AUC(0-t) of 3480

---

Test: In vivo microdialysis pharmacokinetics of LVFX without transporter inhibitors
Design: species or system rat
Settings: rat, brain ECF, iv, 50 mg/kg, brain ECF; Group 2: 1.25% NaHCO3 solution + LVFX 50 mg/kg; mean ± SD, n=3; read-out: AUC0–180 (converted)
Measured Parameter: AUC(0-t)
The reply should consist of the numeric value with the unit placed after it.

The compound identified as `C[C@H]1COc2c(N3CCN(C)CC3)c(F)cc3c(=O)c(C(=O)O)cn1c23` registered its AUC(0-t) at 3240 ng·h/mL

Origin of measurements: paper PMC9804084
